molecular target: rNET (Rattus norvegicus, UniProt Q63380); construct: As a means to evaluate transporter activity of prolintane analogs in native tissue preparation; test: Uptake inhibition assay ([3H]norepinephrine) in rat brain synaptosomes
Sequence (Q63380 1-617): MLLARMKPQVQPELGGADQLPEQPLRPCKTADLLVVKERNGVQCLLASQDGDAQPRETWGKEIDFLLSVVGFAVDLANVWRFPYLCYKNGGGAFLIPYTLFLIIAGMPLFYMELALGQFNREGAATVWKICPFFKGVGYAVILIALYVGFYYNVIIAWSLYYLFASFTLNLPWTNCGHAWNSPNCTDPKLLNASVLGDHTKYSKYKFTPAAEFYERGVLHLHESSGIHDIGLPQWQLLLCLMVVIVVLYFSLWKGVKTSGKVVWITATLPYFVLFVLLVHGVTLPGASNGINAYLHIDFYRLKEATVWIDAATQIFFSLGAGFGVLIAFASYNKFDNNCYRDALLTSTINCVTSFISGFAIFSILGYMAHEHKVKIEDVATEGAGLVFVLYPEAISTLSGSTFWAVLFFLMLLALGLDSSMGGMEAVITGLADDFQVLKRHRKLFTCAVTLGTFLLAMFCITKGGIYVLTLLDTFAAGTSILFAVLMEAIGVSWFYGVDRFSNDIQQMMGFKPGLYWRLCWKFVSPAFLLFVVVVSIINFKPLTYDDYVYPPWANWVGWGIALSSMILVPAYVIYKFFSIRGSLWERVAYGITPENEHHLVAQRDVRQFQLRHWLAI
Reported IC50 values for a set of compounds

[
  {
    "compound": "CCCC(Cc1ccccc1C)N1CCCC1 (stereo not shown)",
    "IC50": "138 nM"
  },
  {
    "compound": "CCCC(Cc1ccccc1F)N1CCCC1 (stereo not shown)",
    "IC50": "63 nM"
  },
  {
    "compound": "CCCC(Cc1cccc(C)c1)N1CCCC1 (stereo not shown)",
    "IC50": "62 nM"
  },
  {
    "compound": "CCCC(Cc1ccc(F)cc1)N1CCCC1 (stereo not shown)",
    "IC50": "217 nM"
  },
  {
    "compound": "CCCC(Cc1ccccc1)N1CCCC1 (stereo not shown)",
    "IC50": "39 nM"
  },
  {
    "compound": "CCCC(Cc1cccc(F)c1)N1CCCC1 (stereo not shown)",
    "IC50": "28 nM"
  },
  {
    "compound": "CCCC(Cc1ccc(C)cc1)N1CCCC1 (stereo not shown)",
    "IC50": "45 nM"
  }
]

----------
biological target: hSERT (Homo sapiens); test: Uptake inhibition assay ([3H]5-HT) in transfected HEK293 cells
pIC50: −log10 of the molar value.
Reported pIC50 values for a set of compounds

[
  {
    "compound": "CCCC(Cc1ccccc1)N1CCCC1 (stereo not shown)",
    "pIC50": 4.54
  },
  {
    "compound": "CCCC(Cc1cccc(F)c1)N1CCCC1 (stereo not shown)",
    "pIC50": 4.87
  },
  {
    "compound": "CCCC(Cc1ccc(F)cc1)N1CCCC1 (stereo not shown)",
    "pIC50": 4.71
  },
  {
    "compound": "CCCC(Cc1ccc(C)cc1)N1CCCC1 (stereo not shown)",
    "pIC50": 5.59
  },
  {
    "compound": "CCCC(Cc1ccccc1F)N1CCCC1 (stereo not shown)",
    "pIC50": 4.45
  },
  {
    "compound": "CCCC(Cc1cccc(C)c1)N1CCCC1 (stereo not shown)",
    "pIC50": 5.53
  },
  {
    "compound": "CCCC(Cc1ccccc1C)N1CCCC1 (stereo not shown)",
    "pIC50": 5.37
  }
]

----------
Target: hSERT (Homo sapiens)
Construct: expressed in transfected cells
Type: cell-based
Settings: Row 7 (time fraction); drug alone vs drug + monensin (Mon)
Procedure: A day prior to the experiment, HEK293 cells stably expressing hSERT or rat SERT (rSERT) were seeded at a density of 100,000 cells per channel into 6 channel flow ibidi slides (Gräfelfing, Germany). […] To assess residual radioactivity within the cells, they were lysed with 1% sodium dodecyl sulfate (SDS), and three final fractions were obtained. The measured tritiated substrate in each fraction was expressed as a percentage of the initial tritiated substrate present at the start of that fraction. […]
Reported Mean diff, hSERT efflux ± Mon (Šídák's multiple comparisons test) values for a set of compounds
reported_property: Mean diff, hSERT efflux ± Mon (Šídák's multiple comparisons test)

[
  {
    "compound": "CCCC(Cc1cccc(C)c1)N1CCCC1 (centres unmarked)",
    "target_entity": "hSERT (Homo sapiens)",
    "recorded_result": -0.329
  },
  {
    "compound": "CCCC(Cc1ccccc1F)N1CCCC1 (centres unmarked)",
    "target_entity": "hSERT (Homo sapiens)",
    "recorded_result": -0.3166
  }
]

----------
target: hSERT (Homo sapiens); construct: expressed in transfected cells; type: cell-based; details: normalized to 10 µM 5-HT current
Short version: Mean of normalized currents elicited through hSERT by drug application at least 0.3 is Condition met, less is Condition not met.

[
  {
    "molecule": "CCCC(Cc1ccccc1C)N1CCCC1 (stereo not shown) [2-Methylprolintane]",
    "target_entity": "hSERT (Homo sapiens)",
    "label_value": "Condition met"
  },
  {
    "molecule": "CCCC(Cc1ccc(F)cc1)N1CCCC1 (stereo not shown) [4-Fluoroprolintane]",
    "target_entity": "hSERT (Homo sapiens)",
    "label_value": "Condition met"
  },
  {
    "molecule": "CCCC(Cc1ccc(C)cc1)N1CCCC1 (stereo not shown) [4-Methylprolintane]",
    "target_entity": "hSERT (Homo sapiens)",
    "label_value": "Condition not met"
  },
  {
    "molecule": "CCCC(Cc1ccccc1F)N1CCCC1 (stereo not shown) [2-Fluoroprolintane]",
    "target_entity": "hSERT (Homo sapiens)",
    "label_value": "Condition not met"
  },
  {
    "molecule": "CCCC(Cc1cccc(C)c1)N1CCCC1 (stereo not shown) [3-Methylprolintane]",
    "target_entity": "hSERT (Homo sapiens)",
    "label_value": "Condition met"
  },
  {
    "molecule": "CCCC(Cc1ccccc1)N1CCCC1 (stereo not shown) [Prolintane, 1-(1-phenylpentan-2-yl)pyrrolidine]",
    "target_entity": "hSERT (Homo sapiens)",
    "label_value": "Condition not met"
  }
]

----------
target: rDAT (Rattus norvegicus, UniProt P23977); construct: As a means to evaluate transporter activity of prolintane analogs in native tissue preparation; assay: Uptake inhibition assay ([3H]dopamine) in rat brain synaptosomes
Sequence (P23977 whole entry): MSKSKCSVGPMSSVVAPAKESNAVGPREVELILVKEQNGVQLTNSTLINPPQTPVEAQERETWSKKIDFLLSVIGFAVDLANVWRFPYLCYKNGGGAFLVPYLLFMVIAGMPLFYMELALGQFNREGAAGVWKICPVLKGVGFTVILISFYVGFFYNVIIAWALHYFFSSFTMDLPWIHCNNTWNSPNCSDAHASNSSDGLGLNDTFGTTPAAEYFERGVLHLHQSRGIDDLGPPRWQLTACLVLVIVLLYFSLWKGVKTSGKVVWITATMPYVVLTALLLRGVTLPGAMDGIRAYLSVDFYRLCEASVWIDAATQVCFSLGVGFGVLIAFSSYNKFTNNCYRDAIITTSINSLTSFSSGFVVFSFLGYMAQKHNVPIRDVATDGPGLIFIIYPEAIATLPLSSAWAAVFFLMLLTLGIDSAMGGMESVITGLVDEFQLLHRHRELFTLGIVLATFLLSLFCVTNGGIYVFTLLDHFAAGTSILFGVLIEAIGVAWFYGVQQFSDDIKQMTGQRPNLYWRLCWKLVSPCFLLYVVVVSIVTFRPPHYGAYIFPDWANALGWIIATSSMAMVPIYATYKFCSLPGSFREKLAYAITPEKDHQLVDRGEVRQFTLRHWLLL
reported_property: IC50 (nM)

[
  {
    "compound": "CCCC(Cc1cccc(C)c1)N1CCCC1 (stereo not shown) [3-Methylprolintane]",
    "recorded_result": 111
  },
  {
    "compound": "CCCC(Cc1ccccc1C)N1CCCC1 (stereo not shown) [2-Methylprolintane]",
    "recorded_result": 324
  },
  {
    "compound": "CCCC(Cc1ccc(F)cc1)N1CCCC1 (stereo not shown) [4-Fluoroprolintane]",
    "recorded_result": 213
  },
  {
    "compound": "CCCC(Cc1ccccc1)N1CCCC1 (stereo not shown) [Prolintane, 1-(1-phenylpentan-2-yl)pyrrolidine]",
    "recorded_result": 61
  },
  {
    "compound": "CCCC(Cc1cccc(F)c1)N1CCCC1 (stereo not shown) [3-Fluoroprolintane]",
    "recorded_result": 58
  },
  {
    "compound": "CCCC(Cc1ccc(C)cc1)N1CCCC1 (stereo not shown) [4-Methylprolintane]",
    "recorded_result": 37
  },
  {
    "compound": "CCCC(Cc1ccccc1F)N1CCCC1 (stereo not shown) [2-Fluoroprolintane]",
    "recorded_result": 117
  }
]

----------
target: hSERT (Homo sapiens, UniProt P31645); construct: expressed in transfected cells; assay type: cell-based; conditions: Row 2 (time fraction); drug alone vs drug + monensin (Mon)
Sequence (P31645 whole entry): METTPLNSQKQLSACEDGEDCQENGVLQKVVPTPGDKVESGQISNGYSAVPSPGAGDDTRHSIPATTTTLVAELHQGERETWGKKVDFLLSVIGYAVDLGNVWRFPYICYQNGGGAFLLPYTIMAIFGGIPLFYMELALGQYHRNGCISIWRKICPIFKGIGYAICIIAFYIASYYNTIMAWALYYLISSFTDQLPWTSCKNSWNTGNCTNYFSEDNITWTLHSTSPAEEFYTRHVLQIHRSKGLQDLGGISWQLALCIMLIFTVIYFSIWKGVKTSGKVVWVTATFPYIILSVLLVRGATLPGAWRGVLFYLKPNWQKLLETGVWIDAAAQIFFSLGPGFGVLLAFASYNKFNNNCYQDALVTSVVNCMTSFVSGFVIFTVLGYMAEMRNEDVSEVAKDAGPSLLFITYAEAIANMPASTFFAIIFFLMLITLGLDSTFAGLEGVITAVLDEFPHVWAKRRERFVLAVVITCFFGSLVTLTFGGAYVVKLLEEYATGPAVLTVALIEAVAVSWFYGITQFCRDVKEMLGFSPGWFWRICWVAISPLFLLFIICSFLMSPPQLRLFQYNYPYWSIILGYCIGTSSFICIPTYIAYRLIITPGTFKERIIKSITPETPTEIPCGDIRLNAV
reported_property: Mean diff, hSERT efflux ± Mon (Šídák's multiple comparisons test)

[
  {
    "molecule": "CCCC(Cc1cccc(C)c1)N1CCCC1 (centres unmarked)",
    "recorded_result": 0.01844
  },
  {
    "molecule": "CCCC(Cc1ccccc1F)N1CCCC1 (centres unmarked)",
    "recorded_result": -0.01811
  }
]

----------
Target: hSERT (Homo sapiens, UniProt P31645)
Construct: expressed in transfected cells
Assay type: cell-based
Conditions: Row 12 (time fraction); drug alone vs drug + monensin (Mon)
Method: A day prior to the experiment, HEK293 cells stably expressing hSERT or rat SERT (rSERT) were seeded at a density of 100,000 cells per channel into 6 channel flow ibidi slides (Gräfelfing, Germany). […] To assess residual radioactivity within the cells, they were lysed with 1% sodium dodecyl sulfate (SDS), and three final fractions were obtained. The measured tritiated substrate in each fraction was expressed as a percentage of the initial tritiated substrate present at the start of that fraction. […]
reported_property: Mean diff, hSERT efflux ± Mon (Šídák's multiple comparisons test)

[
  {
    "molecule": "CCCC(Cc1cccc(C)c1)N1CCCC1 (centres unmarked)",
    "target_entity": "hSERT (Homo sapiens, UniProt P31645)",
    "recorded_result": -5.776
  },
  {
    "molecule": "CCCC(Cc1ccccc1F)N1CCCC1 (centres unmarked)",
    "target_entity": "hSERT (Homo sapiens, UniProt P31645)",
    "recorded_result": -6.561
  }
]

----------
target: hDAT (Homo sapiens, UniProt Q01959); construct: expressed in transfected cells; assay: Batch release assay ([3H]MPP+) in transfected HEK293 cells; assay type: cell-based; details: % efflux of total uptake, compounds approximately at IC50 concentration
Sequence (Q01959 whole entry): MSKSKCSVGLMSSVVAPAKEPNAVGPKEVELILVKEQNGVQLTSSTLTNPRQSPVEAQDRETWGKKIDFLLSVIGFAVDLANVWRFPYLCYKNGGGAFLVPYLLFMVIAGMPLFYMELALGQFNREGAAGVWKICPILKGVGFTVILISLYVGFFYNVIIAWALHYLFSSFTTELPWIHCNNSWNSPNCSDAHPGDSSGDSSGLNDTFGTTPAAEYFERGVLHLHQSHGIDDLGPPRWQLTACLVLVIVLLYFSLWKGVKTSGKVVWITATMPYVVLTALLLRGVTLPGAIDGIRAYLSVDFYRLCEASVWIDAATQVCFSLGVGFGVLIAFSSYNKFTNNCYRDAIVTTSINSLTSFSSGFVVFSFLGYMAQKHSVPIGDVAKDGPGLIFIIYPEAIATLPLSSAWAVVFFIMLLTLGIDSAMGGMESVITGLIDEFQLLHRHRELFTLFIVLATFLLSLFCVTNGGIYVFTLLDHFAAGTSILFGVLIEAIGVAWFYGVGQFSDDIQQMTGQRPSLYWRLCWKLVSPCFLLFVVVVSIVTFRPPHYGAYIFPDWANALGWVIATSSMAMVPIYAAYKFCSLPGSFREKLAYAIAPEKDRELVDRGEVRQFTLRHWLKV
Structures can show the parent of a compound that is named as a salt.
Class (by hDAT-mediated efflux, predicted (LS) mean diff, No mon - Mon) -- one (below -0.8), two (-0.8 to below -0.04), three (-0.04 or more)

[
  {
    "compound": "Fc1ccc(C(OCCN2CCN(CCCc3ccccc3)CC2)c2ccc(F)cc2)cc1 [GBR12909, vanoxerine, reference compound]",
    "label_value": "two"
  },
  {
    "compound": "CCCC(Cc1cccc(F)c1)N1CCCC1 (stereo not drawn)",
    "label_value": "three"
  },
  {
    "compound": "CCCC(Cc1ccc(C)cc1)N1CCCC1 (stereo not drawn)",
    "label_value": "one"
  },
  {
    "compound": "C[C@H](N)Cc1ccccc1 [S-(+)-amphetamine, dextroamphetamine hemi sulfate salt, reference compound]",
    "label_value": "one"
  },
  {
    "compound": "CCCC(Cc1ccc(F)cc1)N1CCCC1 (stereo not drawn)",
    "label_value": "two"
  },
  {
    "compound": "CCCC(Cc1ccccc1C)N1CCCC1 (stereo not drawn)",
    "label_value": "two"
  },
  {
    "compound": "CCCC(Cc1cccc(C)c1)N1CCCC1 (stereo not drawn)",
    "label_value": "two"
  },
  {
    "compound": "CCCC(Cc1ccccc1)N1CCCC1 (stereo not drawn)",
    "label_value": "three"
  },
  {
    "compound": "CCCC(Cc1ccccc1F)N1CCCC1 (stereo not drawn)",
    "label_value": "two"
  }
]
